target: GRM8 (Homo sapiens); construct: purchased Promega (in-house HiBiT-GPCR construct library, NanoBRET); assay: NanoBRET screen HiBiT-GRM8 in HEK293; assay type: binding; details: GRM8; tracer 0.1μM
Sequence (O00222 34-908): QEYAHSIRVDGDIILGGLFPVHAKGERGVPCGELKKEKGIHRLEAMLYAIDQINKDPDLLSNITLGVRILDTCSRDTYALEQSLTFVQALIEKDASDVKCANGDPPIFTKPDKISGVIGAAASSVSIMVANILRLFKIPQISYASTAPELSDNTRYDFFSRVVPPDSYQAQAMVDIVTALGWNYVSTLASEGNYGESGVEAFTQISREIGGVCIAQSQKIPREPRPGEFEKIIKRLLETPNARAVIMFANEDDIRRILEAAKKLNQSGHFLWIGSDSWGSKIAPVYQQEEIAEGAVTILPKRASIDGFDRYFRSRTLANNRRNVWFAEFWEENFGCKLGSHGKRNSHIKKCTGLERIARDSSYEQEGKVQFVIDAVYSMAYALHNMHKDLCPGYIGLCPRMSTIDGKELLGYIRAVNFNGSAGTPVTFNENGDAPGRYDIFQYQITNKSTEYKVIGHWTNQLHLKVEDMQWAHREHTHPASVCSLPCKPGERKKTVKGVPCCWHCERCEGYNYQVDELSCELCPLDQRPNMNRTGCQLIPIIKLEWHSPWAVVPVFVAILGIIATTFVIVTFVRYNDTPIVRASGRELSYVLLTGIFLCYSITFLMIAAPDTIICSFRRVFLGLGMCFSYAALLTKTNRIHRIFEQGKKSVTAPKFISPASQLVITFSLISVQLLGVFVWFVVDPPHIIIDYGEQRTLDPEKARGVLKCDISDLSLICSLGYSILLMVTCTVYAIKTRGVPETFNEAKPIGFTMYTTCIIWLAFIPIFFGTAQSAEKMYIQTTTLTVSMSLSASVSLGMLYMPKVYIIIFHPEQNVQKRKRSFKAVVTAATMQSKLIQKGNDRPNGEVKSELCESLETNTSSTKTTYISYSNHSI
observable: NanoBRET Fold Response

Recorded NanoBRET Fold Response of COc1ccccc1N1CCN(CCCCN2C(=O)c3ccc(CNC(=O)CCOCCNC(=O)c4ccc(CNC(=O)CCc5ccc6n5[B-](F)(F)[N+]5=C(c7ccc[nH]7)C=CC5=C6)cc4)cc3C2=O)CC1 , please.
1.21

How about CN(C)CCC=C1c2ccccc2CCc2ccc(C(=O)NCCNC(=O)CCOCCOCCOCCOCCNC(=O)CCc3ccc4n3[B-](F)(F)[N+]3=C(c5ccc[nH]5)C=CC3=C4)cc21 ?
1.01

How about CCCn1c(=O)c2[nH]c(-c3ccc(OCC(=O)NCCNC(=O)CCOCCNC(=O)c4ccc(CNC(=O)CCc5ccc6n5[B-](F)(F)[N+]5=C(c7ccc[nH]7)C=CC5=C6)cc4)cc3)nc2n(CCC)c1=O ?
0.99

----------
Exercise: for every item that follows, state its recorded NanoBRET Fold Response.
Target: ADORA3 (Homo sapiens)
Construct: purchased Promega (in-house HiBiT-GPCR construct library, NanoBRET)
Sequence (P0DMS8 1-318): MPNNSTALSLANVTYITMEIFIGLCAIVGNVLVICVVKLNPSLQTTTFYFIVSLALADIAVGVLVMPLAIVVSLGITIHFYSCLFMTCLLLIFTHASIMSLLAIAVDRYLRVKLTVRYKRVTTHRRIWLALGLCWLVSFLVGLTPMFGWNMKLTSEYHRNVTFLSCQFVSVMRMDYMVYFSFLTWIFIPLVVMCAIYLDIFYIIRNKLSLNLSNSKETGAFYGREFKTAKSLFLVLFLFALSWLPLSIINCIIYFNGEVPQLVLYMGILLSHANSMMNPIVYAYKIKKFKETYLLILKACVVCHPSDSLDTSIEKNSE
Experiment: NanoBRET screen HiBiT-ADORA3 in HEK293
Format: binding
Settings: ADORA3; tracer 1μM

Recorded NanoBRET Fold Response of CC(C)N(CC[C@H](c1ccccc1)c1cc(CCNC(=O)CCOCCOCCOCCOCCNC(=O)CCc2ccc3n2[B-](F)(F)[N+]2=C(c4ccc[nH]4)C=CC2=C3)ccc1O)C(C)C , please.
1.00

How about CC(C)N(CC[C@H](c1ccccc1)c1cc(CCNC(=O)c2ccc(CNC(=O)CCc3ccc4n3[B-](F)(F)[N+]3=C(c5ccc[nH]5)C=CC3=C4)cc2)ccc1O)C(C)C ?
0.71

How about COc1ccccc1N1CCN(CCCCN2C(=O)c3ccc(CNC(=O)CCOCCNC(=O)c4ccc(CNC(=O)CCc5ccc6n5[B-](F)(F)[N+]5=C(c7ccc[nH]7)C=CC5=C6)cc4)cc3C2=O)CC1 ?
1.19

----------
target: MC2R (Homo sapiens); construct: purchased Promega (in-house HiBiT-GPCR construct library, NanoBRET); assay: NanoBRET screen HiBiT-MC2R in HEK293; format: binding; conditions: MC2R; tracer 0.1μM
Sequence (Q01718 whole entry): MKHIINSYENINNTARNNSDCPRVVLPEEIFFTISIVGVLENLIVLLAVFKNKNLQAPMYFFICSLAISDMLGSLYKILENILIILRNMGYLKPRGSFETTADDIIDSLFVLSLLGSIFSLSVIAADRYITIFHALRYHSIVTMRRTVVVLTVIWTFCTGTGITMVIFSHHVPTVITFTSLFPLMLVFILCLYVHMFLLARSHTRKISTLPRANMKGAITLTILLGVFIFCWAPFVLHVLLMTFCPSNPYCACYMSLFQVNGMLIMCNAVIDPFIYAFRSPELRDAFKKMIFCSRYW
So basically: NanoBRET Fold Response at 1 or higher? That is Criterion met. Lower than 1? That is Criterion not met.

Given the entry CC(C)N(CC[C@H](c1ccccc1)c1cc(CCNC(=O)c2ccc(CNC(=O)CCc3ccc4n3[B-](F)(F)[N+]3=C(c5ccc[nH]5)C=CC3=C4)cc2)ccc1O)C(C)C , answer whether its NanoBRET Fold Response meets or surpasses 1.
Criterion not met

How about COc1ccccc1N1CCN(CCCCN2C(=O)c3ccc(CNC(=O)CCOCCOCCOCCOCCNC(=O)CCc4ccc5n4[B-](F)(F)[N+]4=C(c6ccc[nH]6)C=CC4=C5)cc3C2=O)CC1 ?
Criterion not met

How about O=C(CCc1ccc2n1[B-](F)(F)[N+]1=C(c3ccc[nH]3)C=CC1=C2)NCc1ccc(C(=O)NCCOCCC(=O)N[C@@H]2CC[C@@]3(O)[C@H]4Cc5ccc(O)c6c5[C@@]3(CCN4CC3CC3)[C@H]2O6)cc1 [Naltrexone-3-NB590] ?
Criterion not met

How about Cc1nc2n(c(=O)c1CCN1CCC(c3noc4cc(F)ccc34)CC1)CCCC2OC(=O)NCCOCCOCCOCCOCCNC(=O)CCc1ccc2n1[B-](F)(F)[N+]1=C(c3ccc[nH]3)C=CC1=C2 (centres unmarked) ?
Criterion met

How about CC(C)N(CC[C@H](c1ccccc1)c1cc(CCNC(=O)CCOCCOCCOCCOCCNC(=O)CCc2ccc3n2[B-](F)(F)[N+]2=C(c4ccc[nH]4)C=CC2=C3)ccc1O)C(C)C ?
Criterion met

How about N#CN=C(NCCCOc1cccc(CN2CCCCC2)c1)NCCNC(=O)CCOCCOCCOCCOCCNC(=O)CCc1ccc2n1[B-](F)(F)[N+]1=C(c3ccc[nH]3)C=CC1=C2 ?
Criterion not met

Data provenance: paper PMC8151276
